Where these numbers come from: patent US20250228865A1

Test system: recombinant human CFTR carrying the premature stop codon (PTC) mutation G542X
measurement notes: CFTR-PTC mutant translation readthrough, Nanoluc tagged CFTR luminescence (G542X cell line)
Type: cell-based
run parameters: fold over 10 μM G-418; in combination with G418; G542X cell line
value type: CFTR G542X ACTIVITY Fold 10 μM G-418

molecule="O=C1OC(CO)CN1c1ccc(CCc2c(Cl)cccc2Cl)cc1 (stereo not drawn)" value_type="CFTR G542X ACTIVITY Fold 10 μM G-418" test_result="C′ (C′ = <5X)"
molecule="Cc1cccc(C(F)(F)F)c1COc1ccc(N2C(=O)NC(C(C)C)C2=O)cc1 (stereo not drawn)" value_type="CFTR G542X ACTIVITY Fold 10 μM G-418" test_result="A′ (A′ = ≥10X)"
molecule=Cc1cccc(C(F)(F)F)c1COc1cnc(N2CCC[C@@H](O)C2)nc1 value_type="CFTR G542X ACTIVITY Fold 10 μM G-418" test_result="A′ (A′ = ≥10X)"
molecule="C[C@H]1CO[C@H](CO)CN1c1ncc(OCc2c(Cl)cccc2Cl)cn1 (racemic)" value_type="CFTR G542X ACTIVITY Fold 10 μM G-418" test_result="A′ (A′ = ≥10X)"
molecule="Cc1cccc(C(F)(F)F)c1COc1cnc(N2CCS(=O)(=O)C(CO)C2)nc1 (stereo not drawn) [2-(hydroxymethyl)-4-(5-{[2-methyl-6-(trifluoromethyl)phenyl]]" value_type="CFTR G542X ACTIVITY Fold 10 μM G-418" test_result="C′ (C′ = <5X)"
molecule="NCC1CN(c2ncc(OCc3c(Cl)cccc3Cl)cn2)CCO1 (stereo not drawn)" value_type="CFTR G542X ACTIVITY Fold 10 μM G-418" test_result="A′ (A′ = ≥10X)"
